System: Peptostreptococcus anaerobius
protocol.notes: Antibacterial activity against anaerobic Peptostreptococcus anaerobius 1451
Assay type: functional
What MIC was measured for each of the following?
One number for each entry, in µg/mL.

Take a look at these entries with their results.
CO[C@@]1(NC(=O)C2SC(=C(C(N)=O)C(=O)O)S2)C(=O)N2C(C(=O)O)=C(CSc3nnnn3C)CS[C@@H]21 (some centres not stated) [CEFOTETAN] : 128
CO/N=C(\C(=O)N[C@@H]1C(=O)N2C(C(=O)O)=C(Sc3ncc(C(F)(F)F)s3)CC[C@H]12)c1csc(N)n1 : 0.5
CO/N=C(\C(=O)N[C@@H]1C(=O)N2C(C(=O)O)=C(Sc3ncc(S(C)(=O)=O)s3)CC[C@H]12)c1csc(N)n1 : 0.5
CO/N=C(\C(=O)N[C@@H]1C(=O)N2C(C(=O)O)=C(Sc3ncc(C#N)s3)CC[C@H]12)c1csc(N)n1 : 0.5

INPUT: For the compound CO[C@@]1(NC(=O)Cc2cccs2)C(=O)N2C(C(=O)O)=C(COC(N)=O)CS[C@@H]21 [CEFOXITIN] , give its reported MIC.
OUTPUT: 2

Just for reference, ChEMBL document CHEMBL1126762 is where these values come from.
